Source: ChEMBL document CHEMBL5108036

Tested on: Bacillus subtilis
Experiment: Antibacterial activity against Bacillus subtilis 168 incubated for 48 hrs and measured by broth microdilution assay
Type: functional
observable: MIC (µg/mL)
# number only, unit µg/mL dropped from output

Lookup: For the compound `NCCN1C(=O)N(CCN)C(=O)C(Cc2cc(Br)cc(Br)c2)(Cc2cc(Br)cc(Br)c2)C1=O.O=C(O)C(F)(F)F.O=C(O)C(F)(F)F` , what MIC is on record?
Found: 4

Lookup: Consider the compound shown here: `C[N+](C)(C)CCCCN1C(=O)N(CCCC[N+](C)(C)C)C(=O)C(Cc2cc(Br)cc(Br)c2)(Cc2cc(Br)cc(Br)c2)C1=O.O=C([O-])C(F)(F)F.O=C([O-])C(F)(F)F` What is its recorded MIC?
Found: 8

Lookup: What value of measured MIC is listed for `N=C(N)NCCCN1C(=O)N(CCCNC(=N)N)C(=O)C(Cc2ccc(C(F)(F)F)cc2)(Cc2ccc(C(F)(F)F)cc2)C1=O.O=C(O)C(F)(F)F.O=C(O)C(F)(F)F` ?
Found: 4

* * *

Test system: Staphylococcus aureus
Assay: Antibacterial activity against Staphylococcus aureus ATCC 9144 incubated for 48 hrs and measured by broth microdilution assay
Format: functional
Would you kindly list MIC for each of these compounds?

Lookup: Look up MIC for this compound: `N=C(N)NCCCCN1C(=O)N(CCCCNC(=N)N)C(=O)C(Cc2ccc3ccccc3n2)(Cc2ccc3ccccc3n2)C1=O.O=C(O)C(F)(F)F.O=C(O)C(F)(F)F`
Found: 8 µg/mL

Lookup: Would you kindly share the measured MIC for `N=C(N)NCCCCCN1C(=O)N(CCCCCNC(=N)N)C(=O)C(Cc2cc(Br)cc(Br)c2)(Cc2cc(Br)cc(Br)c2)C1=O.O=C(O)C(F)(F)F.O=C(O)C(F)(F)F` ?
Found: 4 µg/mL

Lookup: I have this compound here, `N=C(N)NCCCN1C(=O)N(CCCNC(=N)N)C(=O)C(Cc2ccc3cc(Br)ccc3n2)(Cc2ccc3cc(Br)ccc3n2)C1=O.O=C(O)C(F)(F)F.O=C(O)C(F)(F)F` , and I need its recorded MIC.
Found: 8 µg/mL

Lookup: Look at this compound and give its reported MIC. `N=C(N)NCCN1C(=O)N(CCNC(=N)N)C(=O)C(Cc2cc(Br)cc(Br)c2)(Cc2cc(Br)cc(Br)c2)C1=O.O=C(O)C(F)(F)F.O=C(O)C(F)(F)F`
Found: 2 µg/mL

Lookup: Endpoint output: MIC of `N[C@H]1CC[C@H](N2C(=O)N([C@H]3CC[C@H](N)CC3)C(=O)C(Cc3cc(Br)cc(Br)c3)(Cc3cc(Br)cc(Br)c3)C2=O)CC1.O=C(O)C(F)(F)F.O=C(O)C(F)(F)F` . Value?
Found: 2 µg/mL

Lookup: Item `N[C@H]1C[C@@H](N2C(=O)N([C@H]3C[C@@H](N)C3)C(=O)C(Cc3cc(Br)cc(Br)c3)(Cc3cc(Br)cc(Br)c3)C2=O)C1.O=C(O)C(F)(F)F.O=C(O)C(F)(F)F` has what recorded MIC?
Found: 8 µg/mL

Lookup: MIC for `N=C(N)NCCCN1C(=O)N(CCCNC(=N)N)C(=O)C(Cc2ccc(Br)c3ccccc23)(Cc2ccc(Br)c3ccccc23)C1=O.O=C(O)C(F)(F)F.O=C(O)C(F)(F)F` ?
Found: 2 µg/mL

Lookup: Form field: reported MIC of `NCCCCN1C(=O)N(CCCCN)C(=O)C(Cc2ccc(C(F)(F)F)cc2)(Cc2cc(Br)cc(Br)c2)C1=O.O=C(O)C(F)(F)F.O=C(O)C(F)(F)F`
Found: 16 µg/mL

Lookup: Please report the recorded MIC for `N=C(N)NCCCN1C(=O)N(CCCNC(=N)N)C(=O)C(Cc2cc(Br)cc(Br)c2)(Cc2cc(Br)cc(Br)c2)C1=O.O=C(O)C(F)(F)F.O=C(O)C(F)(F)F` .
Found: 2 µg/mL

Lookup: Query (compound): `CNCCCCN1C(=O)N(CCCCNC)C(=O)C(Cc2cc(Br)cc(Br)c2)(Cc2cc(Br)cc(Br)c2)C1=O.O=C(O)C(F)(F)F.O=C(O)C(F)(F)F` ; field requested: MIC
Found: 8 µg/mL

Lookup: I'd like to know its MIC. The compound in question is `N=C(N)N[C@H]1CC[C@@H](N2C(=O)N([C@H]3CC[C@@H](NC(=N)N)CC3)C(=O)C(Cc3cc(Br)cc(Br)c3)(Cc3cc(Br)cc(Br)c3)C2=O)CC1.O=C(O)C(F)(F)F.O=C(O)C(F)(F)F`
Found: 2 µg/mL
